- Tested on: Tov112D
- assay-explanation: Primary qHTS to identify gynecologic anti-cancer compounds using libraries of approved drugs and bioactive compounds (AID 1345084); also: nearly all actives have a fitted effect of over 55% in size
- condition: Gynecologic cancer cell panel viability, ATPlite luminescence, 48 h; series mostly up to 57.5 µM
Inconclusive results are not listed. Calls of active or inactive are those of the source. Calls follow the shape of the dose curve; as a rule, active = well fitted cell-killing curve with a large enough effect; inconclusive = small, poorly fitted or top-dose-only effect, or effect the other way; inactive = flat fitted curve, though single readings scatter.
Valid outcomes are listed here; reply with one: Y = active, N = inactive

Some solved cases for reference:
molecule	assigned-label
C=C1C[C@]23C[C@H]1[C@@H](O)C[C@H]2[C@@]12C=C[C@H](O)[C@@](C)(C(=O)O1)[C@H]2[C@@H]3C(=O)O	N
CCOC(=O)c1sc(NC(=O)[C@H](C(C)C)n2c(=O)[nH]c3ccccc3c2=O)nc1C	N
OC[C@H]1O[C@@H](Oc2cc(O)c3c(c2)O[C@@H](c2ccc(O)cc2)[C@H](O)C3)[C@H](O)[C@@H](O)[C@@H]1O	N
CCN(Cc1cccnc1)C(=O)CN(c1ccc(OC)nc1)S(=O)(=O)c1ccccc1C	N
C=C1CC[C@@H]2[C@](C)(CO[C@@H]3O[C@H](CO)[C@@H](O)[C@H](O)[C@H]3O)[C@H](O)CC[C@@]2(C)[C@@H]1C/C=C1/C(=O)OC[C@H]1O	N

Record lookup: outcome of this test for C[C@H]1CC(=O)Nc2cccc(-c3cnn(C(C)(C)C)c3)c2N1 ?
N

What do you get for CC1(C)CC[C@]2(C(=O)O[C@@H]3O[C@H](CO)[C@@H](O)[C@H](O)[C@H]3O)CC[C@]3(C)C(=CCC4[C@@]5(C)C[C@@H](O)[C@H](O)[C@](C)(C(=O)O)C5CC[C@]43C)C2C1O (stereo not given in full) ?
N

Try the molecule C/C=C/C=C/C=C/C(=O)OC1C=C(C=O)C(O)(C(=O)O)C2(C)CCCC(C)(C)C12 (stereo not given)
N

Now the same for CC1=CC(=O)[C@H]2C(C)(C)CCC[C@]2(C)[C@@]1(O)CO
N

Same thing, different molecule: CC1(C)CCC[C@@]2(C)C1[C@H](OC(=O)/C=C/C=C/C(=O)O)C=C1COC(=O)[C@@]12O (stereo not given in full)
N

----------
- Tested on: Tov112D
- assay-explanation: Primary qHTS to identify gynecologic anti-cancer compounds using libraries of approved drugs and bioactive compounds (AID 1345084); also: nearly all actives have a fitted effect of over 55% in size
- condition: Gynecologic cancer cell panel viability, ATPlite luminescence, 48 h; series mostly up to 57.5 µM
Records with an inconclusive call do not appear. Calls of active or inactive are those of the source. Calls come from the whole dose curve; as a rule, active = well fitted cell-killing curve with a large enough effect; inconclusive = small, poorly fitted or top-dose-only effect, or effect the other way; inactive = flat fitted curve, though single readings scatter.
Mark one answer only. Choices: true = active, false = inactive

compound	assigned-label
O=C(NCc1ccc(F)cc1)C(=O)c1c[nH]c2ccccc12	false

Please indicate how the test categorized CN1CCC(Nc2nc(Nc3ccc(Oc4ccccc4)cc3)c3c(=O)[nH]cc(Br)c3n2)CC1 .
false

Field entry: C[C@@H]1CN(Cc2ncccn2)C[C@H]1c1nc2c(cnn2C2CCOCC2)c(=O)[nH]1
false

What do we get for CC1=C(CO)C(=O)O[C@@H]([C@@H](C)[C@H]2CC[C@H]3[C@@H]4C[C@H]5O[C@]56[C@@H](O)C=CC(=O)[C@]6(C)[C@H]4CC[C@]23C)C1 ?
true

Same for C/C=C/c1cc(OC)c2c(c1)[C@@H](C)[C@@H](c1ccc(O)c(OC)c1)O2
false

Request: Cn1nnc(-c2ccc(-c3ccc(N4C[C@H](CO)OC4=O)cc3F)cn2)n1
false

What about O=C(CC(c1ccccc1)c1ccccc1)N1CCN(C(c2ccccc2)c2ccccc2)CC1 ?
false

// query: CC(C)CCC[C@@H](C)[C@H]1CC[C@H]2[C@@H]3CC(=O)[C@H]4C[C@@H](O)CC[C@]4(C)[C@H]3CC[C@]12C
false

----------
- Tested on: HEK293T
- assay-explanation: qHTS assay to identify novel small-molecules to repurpose for Merkel cell carcinoma treatment (AID 1296009); also: nearly all actives have a fitted effect of over 60% in size
- condition: MCC and control cell lines, CellTiter-Glo viability, 72 h; at 44.8 µM (top of the series) unless noted
Inconclusive results are not listed. Active and inactive are the calls of the source. Calls follow the shape of the dose curve; as a rule, active = well fitted inhibition curve with a large enough effect; inconclusive = small, poorly fitted or top-dose-only effect; inactive = flat fitted curve, though single readings scatter.

molecule-smiles	assay-system	outcome
CCOCCOC(=O)/C=C/c1ccc(OC)cc1	HEK293T	inactive
CC/C=C\CCO[C@@H]1O[C@H](CO[C@@H]2OC[C@H](O)[C@H](O)[C@H]2O)[C@@H](O)[C@H](O)[C@H]1O	HEK293T	inactive

----------
- assay-explanation: Confirmatory screen NINDS Rhodamine qHTS for Zika virus inhibitors (AID 1347161); also: nearly all actives have a fitted effect of over 60% in size
- condition: purified enzyme assay, Rhodamine110 substrate fluorescence, 15 min; series mostly up to 114 µM
- From the text: Avindra Nath, Ph.D., National Institute of Neurological Disorders and Stroke (NINDS), Bethesda, MD Radhakrishnan Padmanabhan, Ph.D., Georgetown University (GU), Washington D.C. Zika Virus causes congenital defects, including microcephaly and is associated with Guillain-Barre syndrome, eningoencephalitis and myelitis in infected adult. […]
Inconclusive results are not listed. The source made the active and inactive calls. The call rests on the fitted dose curve; in most records, active means well fitted inhibition curve with a large enough effect; inconclusive means small, poorly fitted or top-dose-only effect; inactive means no such curve, though single readings can be large or run the other way.
Response enum: true (active), false (inactive)

// below: answered compounds
> print(dat)
                                   compound  assigned.label
1  COc1ccc(Cl)c(Nc2nc3ccccc3nc2NS(=O)(=O)c2cccc(NC(=O)C(C)(C)N)c2)c1            true
2  CC1(C)CC[C@]2(C(=O)O)CC[C@]3(C)C(=CCC4[C@@]5(C)C[C@@H](O)[C@H](O)C(C)(C)C5CC[C@]43C)C2C1 (stereo not given in full)            true
3  O=C(O)/C=C/c1ccc(-c2ccc(O)c(C34CC5CC(CC(C5)C3)C4)c2)cc1            true

Outcome logged for C/C=C/C1=CC2=C(CO1)C(=O)C(C)(O)C(OC(=O)c1c(C)cc(OC)cc1O)C2 (stereo not given) in this assay:
false

And what about the compound O=C(N/N=C/c1ccc(O)c(O)c1)c1cc2ccccc2cc1O ?
true

Same question for CCCCCCOc1cc2c(cc1N(C)c1ncc(C(=O)O)cn1)C(C)(C)CCC2(C)C please.
true

Consider next the compound CC1(C)CC2=C3C=CC4C5(C)CCC(O)C(C)(C)C5CCC4(C)C3(C)CCC2(C)C(O)C1 (stereo not given) in the same way.
true

Same lookup for N#CC(c1ccnc(OCc2ccc(CN3CCOCC3)cc2)n1)c1nc2ccccc2s1 (stereo not given) , please.
true

Can you handle O=C(O)Cc1ccc2oc(-c3ccc(NC(=O)/C=C/c4ccc(Br)cc4)c(F)c3)nc2c1 next?
true

----------
- System: HeLa
- assay-explanation: Primary qHTS to identify gynecologic anti-cancer compounds using libraries of approved drugs and bioactive compounds (AID 1345084); also: nearly all actives have a fitted effect of over 55% in size
- condition: Gynecologic cancer cell panel viability, ATPlite luminescence, 48 h; series mostly up to 57.5 µM
- Description: National Center for Advancing Translational Sciences [NCATS] Assay Overview: Chemotherapeutic drug responses vary from cancer to cancer and from patient to patient. […] ATPlite is a luminescence based assay reliant on the conversion of a luciferase substrate to light in the presence of ATP. As a cytotoxic compound will suppress growth and decrease the number of cells, the concentration of ATP will decrease, and less light signal will be detected in the well. […]
Results filed as inconclusive are left out. Activity calls are given as the source filed them. The call rests on the fitted dose curve; in most records, active means well fitted cell-killing curve with a large enough effect; inconclusive means small, poorly fitted or top-dose-only effect, or effect the other way; inactive means flat fitted curve, though single readings scatter.
Would you mind answering with one of these outcomes? active, inactive

molecule	assigned-label
C=C(C(=O)O)C1CCC2(C)CCC(O)C(C)(O)C2C1 (stereo not drawn)	inactive

In this assay, the call recorded for C=C1C(=O)O[C@H]2C1[C@H](OC(=O)/C(=C/CO)COC(=O)/C(C)=C/CO)CC(=C)[C@@H]1CC(=O)[C@@H](C)[C@@H]12 (stereo partly drawn) was what?
inactive

Would you kindly repeat that for O=C(O)[C@@H]1C[C@H]2C[C@@H](CCc3nn[nH]n3)CC[C@H]2CN1 ?
inactive

COc1ccc(C(=O)Nc2ncc(-c3ccc(C(=O)O)cc3)s2)cc1 ?
active

----------
- assay-system: Guanidinoacetate N-methyltransferase (Homo sapiens)
- assay-explanation: Confirmatory Screen for Target Class Profiling of Small Molecule Inhibitors of Methyltransferases (AID 1745852); also: % is scaled to controls: 0 for no effect and ±100 for the full control effect
- condition: MTase-Glo luminescence, SAH detection, recombinant enzyme; at 57.3 µM (top of the series) unless noted
Listing of recorded activity change, negative = inhibition by entry.
Field: numeric (%). Do not append units.

molecule	unit-tag	assay-result
C/C=C/c1ccc2c(c1)[C@@H](C)[C@H](c1ccc(O)cc1)O2	%	0.447
CCCCc1nc2cc(/C=C/C(=O)NO)ccc2n1CCN(CC)CC	%	4.34
CN(C)c1nc(NC2CCC(NC(=O)c3ccc(F)c(F)c3)CC2)nc2ccccc12 (stereo unspecified)	%	0.153

Field request: activity change, negative = inhibition | item: CN(C)C/C=C/C(=O)Nc1cccc(C(=O)Nc2cccc(Nc3ncc(Cl)c(-c4c[nH]c5ccccc45)n3)c2)c1
1.16

Quick one: COc1cc2c(NC3CCN(CC4CCCCC4)CC3)nc(N3CCCN(C(C)C)CC3)nc2cc1OCCCN1CCCCC1
-0.195

What do you have for COc1cc2c(cc1O)CC[C@H]1[C@@H]2CC[C@]2(C)[C@H](O)CC[C@@H]12 ?
0.377

Now consider CC(C)=CCC(O)/C(C)=C/CO[C@@H]1O[C@H](CO)[C@@H](O)[C@H](O)[C@H]1O (stereo partly specified) and answer again.
0

And CCN1CCN(Cc2ccc(NC(=O)Nc3ccc(Oc4cc(NC)ncn4)cc3)cc2C(F)(F)F)CC1 ?
0

Next up: O=C1CSc2ccccc2N1Cc1cccc(C(F)(F)F)c1
-5.12

And the next one, CN(c1ccccc1CNc1nc(Nc2ccc3c(c2)CC(=O)N3)ncc1C(F)(F)F)S(C)(=O)=O ?
-2.47

Can you handle CN(C)c1nc(NC2CCC(NCCc3ccc(Br)cc3OC(F)(F)F)CC2)nc2ccccc12 (stereo unspecified) next?
-2.23

Next molecule up: Nc1nc(-n2cc(C(=O)O)c(=O)c3cc(F)c(N4CC(O)C4)c(Cl)c32)c(F)cc1F
0.345

Also O=C(O)c1ccc(CN2CCC(CN[C@@H]3C[C@H]3c3ccccc3)CC2)cc1 , if possible.
-0.127
